Test system: WB-F344
METHOD SUMMARY: gap junctional intercellular communication (dye spread) relative to vehicle control (fraction of control); higher = more gap junction communication (less inhibition)
CONDITION PARAMETERS: pretreatment: D609+GJIC dysreg.
EXPERIMENTAL ENDPOINT: gap junctional intercellular communication
One number for each entry.

Consider the following illustrative entries.
{"COMPOUND": "CC(C)(OOC(C)(C)c1ccccc1)c1ccccc1 [Dicumylperoxide] (compound abbreviation / co-treatment: DiCuOOH, exposure (dose, time): 50 µM, 15 min)", "SYSTEM UNDER TEST": "WB-F344", "MEAS VALUE": 0.884}
{"COMPOUND": "O=S(=O)(O)C(F)(F)C(F)(F)C(F)(F)C(F)(F)C(F)(F)C(F)(F)C(F)(F)C(F)(F)F [Perfluorooctanesulfonic acid] (compound abbreviation / co-treatment: PFOSA, exposure (dose, time): 40 µM, 20 min)", "SYSTEM UNDER TEST": "WB-F344", "MEAS VALUE": 0.287}
{"COMPOUND": "CC(C)C[C@H](NC(=O)[C@H](CC(C)C)NC(=O)[C@H](Cc1ccccc1)NC(=O)[C@@H](N)CO)C(=O)N[C@@H](CCCN=C(N)N)C(=O)N[C@@H](CC(N)=O)C(=O)O [Thrombin receptor activator peptide-6] (compound abbreviation / co-treatment: TRAP-6, exposure (dose, time): 50 µM, 30 min)", "SYSTEM UNDER TEST": "WB-F344", "MEAS VALUE": 0.588}

The record that follows has no gap junctional intercellular communication shown yet.
Lookup: Fill in the blank: the reported gap junctional intercellular communication of Cc1cccc2c1Cc1ccccc1-2 [1-Methylfluoren] (compound abbreviation / co-treatment: 1-MeFlu, exposure (dose, time): 70 µM, 10 min) is ____.
Found: 0.84
